# experimental_target: xanthine oxidase (XO) (Homo sapiens)
# Sequence (P47989 whole entry, species assumed): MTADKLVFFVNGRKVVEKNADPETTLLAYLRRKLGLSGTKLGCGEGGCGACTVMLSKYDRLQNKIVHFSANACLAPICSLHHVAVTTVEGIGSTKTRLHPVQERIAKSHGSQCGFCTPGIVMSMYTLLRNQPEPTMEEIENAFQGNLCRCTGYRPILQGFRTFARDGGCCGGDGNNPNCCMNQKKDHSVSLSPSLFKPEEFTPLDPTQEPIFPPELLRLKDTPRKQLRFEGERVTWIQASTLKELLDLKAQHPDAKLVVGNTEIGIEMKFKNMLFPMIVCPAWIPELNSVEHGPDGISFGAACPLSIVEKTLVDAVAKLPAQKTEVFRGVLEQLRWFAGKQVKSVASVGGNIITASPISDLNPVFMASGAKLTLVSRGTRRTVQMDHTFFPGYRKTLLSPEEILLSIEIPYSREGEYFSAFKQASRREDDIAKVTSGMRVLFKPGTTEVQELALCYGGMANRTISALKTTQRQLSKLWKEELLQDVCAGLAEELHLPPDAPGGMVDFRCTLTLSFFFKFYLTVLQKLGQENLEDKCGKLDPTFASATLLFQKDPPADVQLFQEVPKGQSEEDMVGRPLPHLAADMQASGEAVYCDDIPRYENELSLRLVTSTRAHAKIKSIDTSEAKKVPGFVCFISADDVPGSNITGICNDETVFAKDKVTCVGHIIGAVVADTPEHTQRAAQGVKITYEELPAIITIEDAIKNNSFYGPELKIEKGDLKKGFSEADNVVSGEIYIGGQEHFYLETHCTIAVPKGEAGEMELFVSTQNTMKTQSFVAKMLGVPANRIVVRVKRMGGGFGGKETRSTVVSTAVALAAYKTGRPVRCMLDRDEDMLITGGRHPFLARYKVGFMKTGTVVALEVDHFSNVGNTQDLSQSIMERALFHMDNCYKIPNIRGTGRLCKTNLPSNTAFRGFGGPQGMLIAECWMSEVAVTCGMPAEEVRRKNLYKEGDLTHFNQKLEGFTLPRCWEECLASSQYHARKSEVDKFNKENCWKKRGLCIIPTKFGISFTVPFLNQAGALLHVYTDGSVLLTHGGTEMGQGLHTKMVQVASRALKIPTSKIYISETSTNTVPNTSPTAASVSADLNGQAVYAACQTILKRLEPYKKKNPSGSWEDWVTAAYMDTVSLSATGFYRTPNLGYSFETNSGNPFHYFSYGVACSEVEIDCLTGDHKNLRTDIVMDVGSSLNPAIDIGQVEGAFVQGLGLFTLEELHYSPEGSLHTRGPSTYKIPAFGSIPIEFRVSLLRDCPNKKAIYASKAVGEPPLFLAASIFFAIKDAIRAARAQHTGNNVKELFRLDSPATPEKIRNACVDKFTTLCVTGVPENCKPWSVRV
I'd appreciate it if you could supply pIC50 values for the items below.
Lab note — pIC50 values are minus log10 of concentrations in M.

### Prompt Data request, read-out pIC50, for O=c1cc(-c2ccc(O)cc2)oc2cc(O)cc(O)c12 [apigenin]
### Response 4.40

### Prompt Another compound: O=c1cc(-c2ccc(O)c(O)c2)oc2cc(O)cc(O)c12 [luteolin]
### Response 4.30
